// log10(IC50) lookup, one value per entry
system_under_test: rat GPR4 (Rattus norvegicus (Rat), UniProt Q4KLH9)
Sequence (Q4KLH9 whole entry): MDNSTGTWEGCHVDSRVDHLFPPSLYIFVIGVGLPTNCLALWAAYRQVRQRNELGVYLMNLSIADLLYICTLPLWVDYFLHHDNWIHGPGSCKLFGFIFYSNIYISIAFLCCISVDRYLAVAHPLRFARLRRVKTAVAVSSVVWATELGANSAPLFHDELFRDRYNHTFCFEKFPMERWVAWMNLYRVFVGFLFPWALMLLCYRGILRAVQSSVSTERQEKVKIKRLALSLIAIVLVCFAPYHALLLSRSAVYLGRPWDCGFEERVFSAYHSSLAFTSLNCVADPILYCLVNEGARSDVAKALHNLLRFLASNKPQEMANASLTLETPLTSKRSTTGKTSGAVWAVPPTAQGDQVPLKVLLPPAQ
protocol_details: Rat GPR4 cAMP assay
assay_setup: read-out: r cAMP IC50
Structures can show the parent of a compound that is named as a salt.
Recorded IC50 (log10, nM)

[
  {
    "compound": "CCc1nn2c(C)cc(C)nc2c1Cc1ccc(OCCN2CCN[C@@H](COC)C2)cc1 [Example 27]",
    "system_under_test": "rat GPR4 (Rattus norvegicus (Rat), UniProt Q4KLH9)",
    "log10(IC50)": 3.42
  },
  {
    "compound": "CCc1nn2c(C)cc(C)nc2c1Cc1ccc(/C=C/C[C@]2(O)CCN[C@@H](C)C2)cc1 [Example 5]",
    "system_under_test": "rat GPR4 (Rattus norvegicus (Rat), UniProt Q4KLH9)",
    "log10(IC50)": 2.21
  },
  {
    "compound": "CCc1nn2c(C)cc(C)nc2c1Cc1ccc(/C=C/CN2CCN[C@@H](CN(C)C)C2)cc1 [Example 13, trihydrochloride]",
    "system_under_test": "rat GPR4 (Rattus norvegicus (Rat), UniProt Q4KLH9)",
    "log10(IC50)": 3.23
  },
  {
    "compound": "CCc1nn2c(C)cc(C)nc2c1Cc1ccc(-n2cc(CN3CCNCC3)cn2)cc1 [Example 31]",
    "system_under_test": "rat GPR4 (Rattus norvegicus (Rat), UniProt Q4KLH9)",
    "log10(IC50)": 3.12
  },
  {
    "compound": "CCc1nn2c(C)cc(C)nc2c1Cc1ccc(/C=C/CC2(O)CCN(C(=O)CNC)CC2)cc1 [Example 7, hydrochloride]",
    "system_under_test": "rat GPR4 (Rattus norvegicus (Rat), UniProt Q4KLH9)",
    "log10(IC50)": 3.24
  },
  {
    "compound": "CCc1nn2c(C)cc(C)nc2c1Cc1ccc(C(=O)NCC2CCNCC2)cc1 [Example 20]",
    "system_under_test": "rat GPR4 (Rattus norvegicus (Rat), UniProt Q4KLH9)",
    "log10(IC50)": 3.18
  }
]

q: Respond only with log10(IC50) recorded for CCc1nn2c(C)cc(C)nc2c1Cc1ccc(/C=C/CN2CCN[C@H](COC)C2)cc1 [Example 10]
a: 3.13

q: Respond only with log10(IC50) recorded for CCc1nn2c(C)cc(C)nc2c1Cc1ccc(-n2cc(CC3(O)CCNCC3)nn2)cc1 [Example 34]
a: 3.09

q: Respond only with log10(IC50) recorded for CCc1nn2c(C)cc(C)nc2c1Cc1ccc(OCC2CCN(C(=O)[C@H]3NCC[C@H]3O)CC2)cc1 [Example 22]
a: 2.31

---

system_under_test: human GPR4 (Homo sapiens (Human), UniProt P46093)
Sequence (P46093 whole entry): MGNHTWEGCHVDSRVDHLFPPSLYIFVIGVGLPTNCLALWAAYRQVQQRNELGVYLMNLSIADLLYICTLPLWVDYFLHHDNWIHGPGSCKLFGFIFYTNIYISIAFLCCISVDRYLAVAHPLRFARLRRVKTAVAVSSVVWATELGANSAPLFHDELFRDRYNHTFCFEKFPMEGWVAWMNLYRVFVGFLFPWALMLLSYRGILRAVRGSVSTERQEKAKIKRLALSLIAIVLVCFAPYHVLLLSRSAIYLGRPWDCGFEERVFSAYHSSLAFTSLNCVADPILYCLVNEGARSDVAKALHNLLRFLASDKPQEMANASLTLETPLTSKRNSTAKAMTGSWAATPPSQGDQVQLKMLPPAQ
protocol_details: Cell-based assay for human GPR4 activity (pH-induced cAMP formation, HTRF, HeLa cells)
assay_setup: HeLa cells stably expressing human GPR4, pH-induced cAMP
Counter-ions that a name gives are not always drawn.
assay_readout: IC50 (nM)
The reply should contain only the number, in nM.

[
  {
    "compound": "CCc1nn2c(C)cc(C)nc2c1Cc1ccc(/C=C/CN2CCN[C@H](COC)C2)cc1 [Example 10]",
    "IC50, nM": 54
  }
]

q: Answer with IC50 of CCc1nn2c(C)cc(C)nc2c1Cc1ccc(-c2nnc(C3CCN(C(=O)CNC)CC3)o2)cc1 [Example 37] measured for human GPR4 (Homo sapiens (Human), UniProt P46093).
a: 40

q: Answer with IC50 of CCc1nn2c(C)cc(C)nc2c1Cc1ccc(-c2nnc([C@H]3CC[C@H](N)CC3)o2)cc1 [Example 36] measured for human GPR4 (Homo sapiens (Human), UniProt P46093).
a: 51

q: Answer with IC50 of CCc1nn2c(C)cc(C)nc2c1Cc1ccc(/C=C/CN2CCN[C@@H](C)C2)cc1 [Example 9] measured for human GPR4 (Homo sapiens (Human), UniProt P46093).
a: 59

q: Answer with IC50 of CCc1nn2c(C)cc(C)nc2c1Cc1ccc(/C=C/CN2CCN(C(=O)[C@H]3NCC[C@H]3O)CC2)cc1 [Example 16, dihydrochloride] measured for human GPR4 (Homo sapiens (Human), UniProt P46093).
a: 41

q: Answer with IC50 of CCc1nn2c(C)cc(C)nc2c1Cc1ccc(/C=C/CN2CCN(C(=O)CN)CC2)cc1 [Example 11, dihydrochloride] measured for human GPR4 (Homo sapiens (Human), UniProt P46093).
a: 46

q: Answer with IC50 of CCc1nn2c(C)cc(C)nc2c1Cc1ccc(-n2cc(CN3CCNCC3)nn2)cc1 [Example 33] measured for human GPR4 (Homo sapiens (Human), UniProt P46093).
a: 31

q: Answer with IC50 of CCc1nn2c(C)cc(C)nc2c1Cc1ccc(/C=C/CN2CCN(C(=O)[C@H](CO)NC)CC2)cc1 [Example 15] measured for human GPR4 (Homo sapiens (Human), UniProt P46093).
a: 56

---

system_under_test: human GPR4 (Homo sapiens (Human))
protocol_details: Human GPR4 binding assay with additional human serum albumin (4% HSA)
assay_setup: binding assay with 4% HSA
Where a name gives a salt, the structure may show the parent alone.
assay_readout: pIC50
// field semantics: pIC50 = negative decimal log of concentration (mol/L)

[
  {
    "compound": "CCc1nn2c(C)cc(C)nc2c1Cc1ccc(/C=C/C2(O)CCNCC2)cc1",
    "pIC50": 7.60
  },
  {
    "compound": "CCc1nn2c(C)cc(C)nc2c1Cc1ccc(-n2cc(CN3CC(N)C3)cn2)cc1",
    "pIC50": 7.52
  }
]

q: Answer with pIC50 of CCc1nn2c(C)cc(C)nc2c1Cc1ccc(-c2nnc(C3CCN(C(=O)[C@H](CO)NC)CC3)o2)cc1 [Example 38, hydrochloride] measured for human GPR4 (Homo sapiens (Human)).
a: 7.54

q: Answer with pIC50 of CCc1nn2c(C)cc(C)nc2c1Cc1ccc(/C=C/CN2CCN(C(=O)[C@H]3NCC[C@H]3O)CC2)cc1 [Example 16, dihydrochloride] measured for human GPR4 (Homo sapiens (Human)).
a: 6.92

---

// pIC50 lookup, one value per entry
system_under_test: human GPR4 (Homo sapiens (Human), UniProt P46093)
protocol_details: Human GPR4 binding assay with additional human serum albumin (4% HSA)
assay_setup: binding assay with 4% HSA
// field semantics: pIC50 = negative decimal log of concentration (mol/L)

Look over these answered cases.
[
  {
    "cpd_smiles": "CCc1nn2c(C)cc(C)nc2c1Cc1ccc(OCCN2CCN[C@@H](COC)C2)cc1",
    "pIC50": 7.09
  },
  {
    "cpd_smiles": "CCc1nn2c(C)cc(C)nc2c1Cc1ccc(/C=C/CN2CCNCC2)cc1",
    "pIC50": 7.92
  },
  {
    "cpd_smiles": "CCc1nn2c(C)cc(C)nc2c1Cc1ccc(-n2cc(CN3CC(O)C3)cn2)cc1",
    "pIC50": 6.74
  }
]

The record that follows has no pIC50 shown yet.
q: Respond only with pIC50 recorded for "CCc1nn2c(C)cc(C)nc2c1Cc1ccc(/C=C/CC2(O)CNC2)cc1"
a: 7.28

---

// pIC50 lookup, one value per entry
system_under_test: Human H3 (Homo sapiens (Human), UniProt Q9Y5N1)
Sequence (Q9Y5N1 whole entry): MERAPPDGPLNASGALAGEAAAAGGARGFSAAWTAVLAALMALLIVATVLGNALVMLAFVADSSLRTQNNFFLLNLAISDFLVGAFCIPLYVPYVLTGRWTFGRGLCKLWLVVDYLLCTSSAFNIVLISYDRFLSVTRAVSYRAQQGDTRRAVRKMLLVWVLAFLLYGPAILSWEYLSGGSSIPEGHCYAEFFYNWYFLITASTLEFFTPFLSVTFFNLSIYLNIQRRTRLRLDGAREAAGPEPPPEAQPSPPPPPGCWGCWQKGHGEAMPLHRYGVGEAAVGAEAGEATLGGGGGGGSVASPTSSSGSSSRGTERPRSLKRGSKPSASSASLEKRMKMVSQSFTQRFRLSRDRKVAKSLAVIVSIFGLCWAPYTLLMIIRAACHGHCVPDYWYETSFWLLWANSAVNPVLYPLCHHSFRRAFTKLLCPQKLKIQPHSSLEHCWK
protocol_details: Human H3 binding assay (SPA, [3H]-R-alpha-Methylhistamine)
assay_setup: 3 nM [3H]-R-alpha-Methylhistamine
pIC50: −log10 of the molar value. Where a name gives a salt, the structure may show the parent alone.

Look over these answered cases.
[
  {
    "compound": "CCc1nn2c(C)cc(C)nc2c1Cc1ccc(/C=C/CC2(O)CCNCC2)cc1",
    "assay_readout": "pIC50",
    "result": "< 4.52"
  },
  {
    "compound": "CCc1nn2c(C)cc(C)nc2c1Cc1ccc(/C=C/CN2CCC(c3nnnn3C)CC2)cc1 [Example 12, hydrochloride]",
    "assay_readout": "pIC50",
    "result": "< 4.52"
  },
  {
    "compound": "CCc1nn2c(C)cc(C)nc2c1Cc1ccc(OCC2CCN(C(=O)[C@H]3NCC[C@H]3O)CC2)cc1",
    "assay_readout": "pIC50",
    "result": "< 4.52"
  },
  {
    "compound": "CCc1nn2c(C)cc(C)nc2c1Cc1ccc(/C=C/CN2CCN[C@@H](C)C2)cc1",
    "assay_readout": "pIC50",
    "result": 4.74
  }
]

q: Answer with pIC50 of CCc1nn2c(C)cc(C)nc2c1Cc1ccc(/C=C/C(=O)N2CCNCC2)cc1 [Example 18, hydrochloride] measured for Human H3 (Homo sapiens (Human), UniProt Q9Y5N1).
a: < 4.52

q: Answer with pIC50 of CCc1nn2c(C)cc(C)nc2c1Cc1ccc(/C=C/CC2(O)CCN(C(=O)CNC)CC2)cc1 [Example 7, hydrochloride] measured for Human H3 (Homo sapiens (Human), UniProt Q9Y5N1).
a: < 4.52

q: Answer with pIC50 of "CCc1nn2c(C)cc(C)nc2c1Cc1ccc(-n2cc(CN3CC(N)C3)cn2)cc1" measured for Human H3 (Homo sapiens (Human), UniProt Q9Y5N1).
a: < 4.52

q: Answer with pIC50 of CCc1nn2c(C)cc(C)nc2c1Cc1ccc(/C=C/CN2CCN(C(=O)[C@H]3NCC[C@H]3O)CC2)cc1 [Example 16, dihydrochloride] measured for Human H3 (Homo sapiens (Human), UniProt Q9Y5N1).
a: < 4.52

q: Answer with pIC50 of CCc1nn2c(C)cc(C)nc2c1Cc1ccc(/C=C/CN2CCN(C(=O)CN)CC2)cc1 [Example 11, dihydrochloride] measured for Human H3 (Homo sapiens (Human), UniProt Q9Y5N1).
a: < 4.52

Sourced from patent US8748435B2
